Cited source: patent US10213433B2

Here we list compounds with their recorded Ki when tested on Bcl-2 protein (Homo sapiens (Human), UniProt P10415).
Sequence (P10415 whole entry): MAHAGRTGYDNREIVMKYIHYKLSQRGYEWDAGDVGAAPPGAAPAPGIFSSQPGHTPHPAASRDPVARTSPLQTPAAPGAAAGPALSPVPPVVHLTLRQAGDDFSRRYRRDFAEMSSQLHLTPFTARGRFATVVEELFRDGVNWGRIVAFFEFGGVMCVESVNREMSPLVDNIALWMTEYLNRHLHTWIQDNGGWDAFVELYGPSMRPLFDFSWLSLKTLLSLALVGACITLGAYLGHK

- compound: "CC1(C)CCC(CN2CCN(c3ccc(C(=O)NS(=O)(=O)c4ccc(NC5CN(C6COC6)C5)c([N+](=O)[O-])c4)c(Oc4cnc5[nH]ccc5c4)c3)CC2)=C(c2ccc(Cl)cc2)C1"
  Ki: "< 0.01 nM"
- compound: "CN1CCC(Nc2ccc(S(=O)(=O)NC(=O)c3ccc(N4CCN(CC5=C(c6ccc(Cl)cc6)CC(C)(C)OC5)CC4)cc3Oc3cnc4[nH]ccc4c3)cc2S(=O)(=O)C(F)(F)F)CC1"
  Ki: "< 0.01 nM"
- compound: "COC1(C)CCC(c2ccc(Cl)cc2)=C(CN2CCN(c3ccc(C(=O)NS(=O)(=O)c4ccc(NCC5CCOCC5)c([N+](=O)[O-])c4)c(Oc4cnc5[nH]ccc5c4)c3)CC2)C1 (stereo not shown)"
  Ki: "< 0.001 nM"
- compound: "CC1(C)CCC(CN2CCN(c3ccc(C(=O)NS(=O)(=O)c4ccc(NCC5CN(C(CF)CF)CCO5)c([N+](=O)[O-])c4)c(Oc4cnc5[nH]ccc5c4)c3)CC2)=C(c2ccc(Cl)cc2)C1 (stereo not shown)"
  Ki: "< 0.01 nM"
- compound: "CC1(C)CCC(CN2CCN(c3ccc(C(=O)NS(=O)(=O)c4ccc(NC(=O)N5CCOCC5)c([N+](=O)[O-])c4)c(Oc4cnc5[nH]ccc5c4)c3)CC2)=C(c2ccc(Cl)cc2)C1"
  Ki: "< 0.001 nM"
- compound: "CN(C)CC(=O)N1CCO[C@@H](CNc2ccc(S(=O)(=O)NC(=O)c3ccc(N4CCN(CC5=C(c6ccc(Cl)cc6)CC(C)(C)CC5)CC4)cc3Oc3cnc4[nH]ccc4c3)cc2[N+](=O)[O-])C1"
  Ki: "< 0.01 nM"
- compound: "CC[C@]1(O)CC[C@H](CNc2ccc(S(=O)(=O)NC(=O)c3ccc(N4CCN(CC5=C(c6ccc(Cl)cc6)CC(C)(C)CC5)CC4)cc3Oc3cnc4[nH]ccc4c3)cc2[N+](=O)[O-])CC1"
  Ki: "< 0.01 nM"
- compound: "CCN(C)C(=O)N1CCOC(CNc2ccc(S(=O)(=O)NC(=O)c3ccc(N4CCN(CC5=C(c6ccc(Cl)cc6)CC(C)(C)CC5)CC4)cc3Oc3cnc4[nH]ccc4c3)cc2[N+](=O)[O-])C1 (stereo not shown)"
  Ki: "< 0.01 nM"
- compound: "CC(C)N1CCC2(CCC(c3ccc(Cl)cc3)=C(CN3CCN(c4ccc(C(=O)NS(=O)(=O)c5ccc(NCC6CCOCC6)c([N+](=O)[O-])c5)c(Oc5cnc6[nH]ccc6c5)c4)CC3)C2)CC1"
  Ki: "< 0.01 nM"
- compound: "CC1(C)CCC(CN2CCN(c3ccc(C(=O)NS(=O)(=O)c4ccc(NCC5CN(C6COC6)CCO5)c([N+](=O)[O-])c4)c(Oc4cnc5[nH]ccc5c4)c3)CC2)=C(c2ccc(Cl)cc2)C1 (stereo not shown)"
  Ki: "< 0.01 nM"
- compound: "CC1(C)CCC(CN2CCN(c3ccc(C(=O)NS(=O)(=O)c4ccc(N[C@@H]5CCN(S(C)(=O)=O)C5)c([N+](=O)[O-])c4)c(Oc4cnc5[nH]ccc5c4)c3)CC2)=C(c2ccc(Cl)cc2)C1"
  Ki: "< 0.01 nM"
- compound: "CC1(C)CCC(CN2CCN(c3ccc(C(=O)NS(=O)(=O)c4ccc(NC[C@H]5CCN(C6CCOCC6)C5)c([N+](=O)[O-])c4)c(Oc4cnc5[nH]ccc5c4)c3)CC2)=C(c2ccc(Cl)cc2)C1"
  Ki: "< 0.01 nM"
- compound: "CC1(C)CCC(CN2CCN(c3ccc(C(=O)NS(=O)(=O)c4ccc(OCC5(F)CCNCC5)c([N+](=O)[O-])c4)c(Oc4cnc5[nH]ccc5c4)c3)CC2)=C(c2ccc(Cl)cc2)C1"
  Ki: "< 0.01 nM"
